Test system: Hepatitis B virus
Assay: Antiviral activity against HBV infected human HePAD38 cells assessed as reduction of HBV DNA level with compound replacement for every 3 days and measured on day 6 by qPCR analysis
Type: functional, organism-based
Form field: log10 of EC50 (one value per entry).
Form field - Quantity: EC50; Unit: nM; Scale: log10

compound="CCOC(=O)C1=C(CN2CCN(C(C(=O)O)c3ccc(C)cc3)CC2)NC(c2nccs2)=NC1c1ccc(F)cc1Br (stereo unspecified)" val=3.93
compound="CCOC(=O)C1=C(CN2CCN(C(C(=O)O)c3ccccc3C)CC2)NC(c2nccs2)=NC1c1ccc(F)cc1Br (stereo unspecified)" val=2.76
compound="CCOC(=O)C1=C(CN2CCN(C(C(=O)O)c3cccc([N+](=O)[O-])c3)CC2)NC(c2nccs2)=NC1c1ccc(F)cc1Br (stereo unspecified)" val=1.30
compound="CCOC(=O)C1=C(CN2CCN(C(C(=O)O)c3ccccc3O)CC2)NC(c2nccs2)=NC1c1ccc(F)cc1Br (stereo unspecified)" val=3.81
compound="CCOC(=O)C1=C(CN2CCN(C(C(=O)O)c3ccc(CC)cc3)CC2)NC(c2nccs2)=NC1c1ccc(F)cc1Br (stereo unspecified)" val=2.66
compound="CCOC(=O)C1=C(CN2CCN(C(/C=C/c3ccccc3)C(=O)O)CC2)NC(c2nccs2)=NC1c1ccc(F)cc1Br (stereo unspecified)" val=1.32
compound="CCOC(=O)C1=C(CN2CCN(C(C(=O)O)C3=CCCCC3)CC2)NC(c2nccs2)=NC1c1ccc(F)cc1Br (stereo unspecified)" val=2.92
compound="CCOC(=O)C1=C(CN2CCN(C(C(=O)O)c3cccc(C)c3)CC2)NC(c2nccs2)=NC1c1ccc(F)cc1Br (stereo unspecified)" val=3.40

Proceeding to the next compound to report its log10 of EC50.
// fetch Hepatitis B virus log10 of EC50 for Nc1ccn([C@@H]2CS[C@H](CO)O2)c(=O)n1 [LAMIVUDINE] 1.95

* * *

Test system: Hepatitis B virus
Experiment: Antiviral activity against HBV infected human HePAD38 cells assessed as reduction of HBV DNA level with compound replacement for every 3 days and measured on day 6 by qPCR analysis
Format: functional, organism-based
endpointLabel: EC50 (nM)
Your answer is read as nM, so omit the unit and give the number.

Worked examples follow.
compound="CCOC(=O)C1=C(CN2CCN(C(C(=O)O)c3cccc4ccccc34)CC2)NC(c2nccs2)=NC1c1ccc(F)cc1Br (stereo unspecified)" endpointlabel=EC50 val=850
compound="CCOC(=O)C1=C(CN2CCN(C(C(=O)O)c3ccc(O)cc3)CC2)NC(c2nccs2)=NC1c1ccc(F)cc1Br (stereo unspecified)" endpointlabel=EC50 val=6300
compound="CCOC(=O)C1=C(CN2CCN(C(C(=O)O)c3ccc4occc4c3)CC2)NC(c2nccs2)=NC1c1ccc(F)cc1Br (stereo unspecified)" endpointlabel=EC50 val=2280
compound="CCOC(=O)C1=C(CN2CCN(C(C(=O)O)c3ccccc3OC)CC2)NC(c2nccs2)=NC1c1ccc(F)cc1Br (stereo unspecified)" endpointlabel=EC50 val=2350
compound="CCOC(=O)C1=C(CN2CCN(C(C(=O)O)c3cccc(C(F)(F)F)c3)CC2)NC(c2nccs2)=NC1c1ccc(F)cc1Br (stereo unspecified)" endpointlabel=EC50 val=9980
compound="CCOC(=O)C1=C(CN2CCN(C(C(=O)O)c3ccc4c(c3)OCCO4)CC2)NC(c2nccs2)=NC1c1ccc(F)cc1Br (stereo unspecified)" endpointlabel=EC50 val=44

Given CCOC(=O)C1=C(CN2CCN(C(C(=O)O)c3ccc(Cl)cc3)CC2)NC(c2nccs2)=NC1c1ccc(F)cc1Br (stereo unspecified) , state its recorded EC50. 390

EC50 lookup needed for CCOC(=O)C1=C(CN2CCN(C(C(=O)O)c3ccc(C#N)cc3)CC2)NC(c2nccs2)=NC1c1ccc(F)cc1Br (stereo unspecified) , thanks. 4310

Would you mind telling me what EC50 value was observed for C=Cc1ccc(C(C(=O)O)N2CCN(CC3=C(C(=O)OCC)C(c4ccc(F)cc4Br)N=C(c4nccs4)N3)CC2)cc1 (stereo unspecified) ? 3780

I am curious: what EC50 value has been reported for CCOC(=O)C1=C(CN2CCN(C(C(=O)O)c3ccccc3)CC2)NC(c2nccs2)=NC1c1ccc(F)cc1Br (stereo unspecified) ? 2690

If you can, please state the reported EC50 value of CCOC(=O)C1=C(CN2CCN(C(C(=O)O)C3=CCCC3)CC2)NC(c2nccs2)=NC1c1ccc(F)cc1Br (stereo unspecified) . 500

Returns the measured EC50 for the input compound. Input: CCOC(=O)C1=C(CN2CCN(C(C(=O)O)c3ccsc3)CC2)NC(c2nccs2)=NC1c1ccc(F)cc1Br (stereo unspecified) 70
